Below, each entry is listed alongside its reported SPOT peptide array binding signal intensity.
# tested.on: SpHof1
# test.name: SPOT peptide array binding signal intensity (averaged, normalized) (arbitrary units (background-subtracted, floor 0; scale differs between SH3 domains)); higher = stronger binding of the SH3 domain to the peptide
parameter: SPOT peptide array binding signal intensity

binder | endpoint.result
KTKQQKPAIPQKKSF | 0.5
AERNYAPRLPRRETS | 49.2
LRIKRKPVQTFFEFI | 436
ATNVPVAPPPPPASL | ≤ 0
AATTSTPPLPRRRAT | 178
QGYPRQPQRPQRYHP | 5
HAPPLPPTAPPPPSL | ≤ 0
